target: ABL1-nonphosphorylated (Homo sapiens, UniProt P00519); construct: purchased Eurofins DiscoverX KINOMEscan (scanTK); assay: KINOMEscan ScanTK; format: binding; conditions: read-out: %Control @1000nM
Sequence (P00519 whole entry): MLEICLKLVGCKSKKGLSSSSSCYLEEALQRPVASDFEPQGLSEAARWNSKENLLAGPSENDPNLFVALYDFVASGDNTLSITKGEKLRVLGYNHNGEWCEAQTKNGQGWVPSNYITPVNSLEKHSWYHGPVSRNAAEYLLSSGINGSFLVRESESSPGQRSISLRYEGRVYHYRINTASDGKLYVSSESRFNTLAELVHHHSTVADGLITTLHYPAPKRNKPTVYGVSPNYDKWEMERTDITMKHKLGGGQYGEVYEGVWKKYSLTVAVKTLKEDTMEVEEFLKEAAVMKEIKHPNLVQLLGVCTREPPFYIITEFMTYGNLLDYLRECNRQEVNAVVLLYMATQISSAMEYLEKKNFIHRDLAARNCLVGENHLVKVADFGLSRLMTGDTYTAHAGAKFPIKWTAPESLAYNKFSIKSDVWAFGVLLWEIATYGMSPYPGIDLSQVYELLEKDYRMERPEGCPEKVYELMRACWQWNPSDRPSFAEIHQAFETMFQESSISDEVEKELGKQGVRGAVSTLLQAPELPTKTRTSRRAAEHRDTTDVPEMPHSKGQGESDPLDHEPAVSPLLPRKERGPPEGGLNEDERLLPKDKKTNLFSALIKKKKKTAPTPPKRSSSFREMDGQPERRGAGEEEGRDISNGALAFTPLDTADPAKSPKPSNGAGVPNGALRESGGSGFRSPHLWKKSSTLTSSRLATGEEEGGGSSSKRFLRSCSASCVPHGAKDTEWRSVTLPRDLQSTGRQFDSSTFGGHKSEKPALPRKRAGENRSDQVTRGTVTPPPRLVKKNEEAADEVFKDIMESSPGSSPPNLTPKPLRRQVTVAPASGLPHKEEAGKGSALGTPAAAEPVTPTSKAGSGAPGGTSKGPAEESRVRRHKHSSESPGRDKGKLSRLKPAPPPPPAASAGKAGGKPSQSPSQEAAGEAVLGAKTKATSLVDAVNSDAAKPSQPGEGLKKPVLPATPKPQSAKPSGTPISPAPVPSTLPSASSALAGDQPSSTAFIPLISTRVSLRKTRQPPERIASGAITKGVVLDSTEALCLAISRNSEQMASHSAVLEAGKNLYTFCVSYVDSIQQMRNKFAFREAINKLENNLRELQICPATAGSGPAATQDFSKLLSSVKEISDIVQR
Measured Metric: remaining binding at 1 µM (%)

Please review the entries below; each comes with its answer.
>  <Compound>
Cc1cnc(S(C)(=O)=O)nc1N1CCCC(n2nc(-c3ccc(Oc4ccccc4)cc3)c3c(N)ncnc32)C1 (stereo not shown) [Compound 8a]

>  <Units>
%

>  <remaining binding at 1 µM>
47

$$$$
>  <Compound>
CNC(=O)c1cnc(S(C)(=O)=O)nc1N1CCCC(n2nc(-c3ccc(Oc4ccccc4)cc3)c3c(N)ncnc32)C1 (stereo not shown) [Compound 8d]

>  <Units>
%

>  <remaining binding at 1 µM>
33

$$$$

(I) COC(=O)c1cnc(S(C)(=O)=O)nc1N1CCCC(n2nc(-c3ccc(Oc4ccccc4)cc3)c3c(N)ncnc32)C1 (stereo not shown) [Compound 8b]
(II) CCOC(=O)c1cnc(S(C)(=O)=O)nc1N1CCC[C@@H](n2nc(-c3ccc(Oc4ccccc4)cc3)c3c(N)ncnc32)C1 [Compound 8c]
Exam item: Please indicate which item has the smaller measured remaining binding at 1 µM: I versus II Please reply using the label of the selected record.
Marked response: II
(II: 45%, I: 65%)
